assay_target: CCR1 (Homo sapiens, UniProt P32246)
Construct: the THP-1 cell line, which expresses the endogenous CCR1 receptor; endogenous in cells; human PBMC or human monocytes are named as alternatives
Sequence (P32246 whole entry): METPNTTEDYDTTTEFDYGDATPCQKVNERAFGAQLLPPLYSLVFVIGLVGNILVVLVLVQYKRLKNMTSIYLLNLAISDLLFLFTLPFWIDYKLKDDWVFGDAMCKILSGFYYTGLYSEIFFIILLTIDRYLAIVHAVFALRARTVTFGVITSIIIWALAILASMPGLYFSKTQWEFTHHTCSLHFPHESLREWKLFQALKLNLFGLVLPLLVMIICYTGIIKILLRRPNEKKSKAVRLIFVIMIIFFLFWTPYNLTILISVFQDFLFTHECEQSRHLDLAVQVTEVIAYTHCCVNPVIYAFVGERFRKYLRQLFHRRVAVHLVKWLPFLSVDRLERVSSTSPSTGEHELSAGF
assay_protocol: Antagonism of 125I-MIP-1α binding to human THP-1 cells (CCR1 binding)
run_conditions: THP-1 cells expressing endogenous CCR1; 50 pM 125I-labeled human MIP-1α; room temperature, thirty minutes; read-out: CCR1 Binding Ki (n = 1 unless otherwise noted)
pKi: −log10 of the molar value.
measured_quantity: pKi

[P] CCC(NC(=O)C1CCCC1)C(O)C1CCN(c2ccc(Cl)cc2)CC1 (single isomer, unassigned) [Example 1]
[Q] CCC(NC(=O)C1CCCC1)C(O)C1CCN(c2ccc(Cl)cc2)CC1 (single isomer, unassigned) [Example 2]
Could you kindly indicate whether P or Q has the higher pKi value? Return value: the label identifying the chosen record. Q
